Test system: Voltage-gated N-type calcium channel alpha-1B subunit/Amyloid beta A4 precursor protein-binding family A member 1 (Homo sapiens, UniProt Q00975+Q02410)
Sequence (Q00975 whole entry): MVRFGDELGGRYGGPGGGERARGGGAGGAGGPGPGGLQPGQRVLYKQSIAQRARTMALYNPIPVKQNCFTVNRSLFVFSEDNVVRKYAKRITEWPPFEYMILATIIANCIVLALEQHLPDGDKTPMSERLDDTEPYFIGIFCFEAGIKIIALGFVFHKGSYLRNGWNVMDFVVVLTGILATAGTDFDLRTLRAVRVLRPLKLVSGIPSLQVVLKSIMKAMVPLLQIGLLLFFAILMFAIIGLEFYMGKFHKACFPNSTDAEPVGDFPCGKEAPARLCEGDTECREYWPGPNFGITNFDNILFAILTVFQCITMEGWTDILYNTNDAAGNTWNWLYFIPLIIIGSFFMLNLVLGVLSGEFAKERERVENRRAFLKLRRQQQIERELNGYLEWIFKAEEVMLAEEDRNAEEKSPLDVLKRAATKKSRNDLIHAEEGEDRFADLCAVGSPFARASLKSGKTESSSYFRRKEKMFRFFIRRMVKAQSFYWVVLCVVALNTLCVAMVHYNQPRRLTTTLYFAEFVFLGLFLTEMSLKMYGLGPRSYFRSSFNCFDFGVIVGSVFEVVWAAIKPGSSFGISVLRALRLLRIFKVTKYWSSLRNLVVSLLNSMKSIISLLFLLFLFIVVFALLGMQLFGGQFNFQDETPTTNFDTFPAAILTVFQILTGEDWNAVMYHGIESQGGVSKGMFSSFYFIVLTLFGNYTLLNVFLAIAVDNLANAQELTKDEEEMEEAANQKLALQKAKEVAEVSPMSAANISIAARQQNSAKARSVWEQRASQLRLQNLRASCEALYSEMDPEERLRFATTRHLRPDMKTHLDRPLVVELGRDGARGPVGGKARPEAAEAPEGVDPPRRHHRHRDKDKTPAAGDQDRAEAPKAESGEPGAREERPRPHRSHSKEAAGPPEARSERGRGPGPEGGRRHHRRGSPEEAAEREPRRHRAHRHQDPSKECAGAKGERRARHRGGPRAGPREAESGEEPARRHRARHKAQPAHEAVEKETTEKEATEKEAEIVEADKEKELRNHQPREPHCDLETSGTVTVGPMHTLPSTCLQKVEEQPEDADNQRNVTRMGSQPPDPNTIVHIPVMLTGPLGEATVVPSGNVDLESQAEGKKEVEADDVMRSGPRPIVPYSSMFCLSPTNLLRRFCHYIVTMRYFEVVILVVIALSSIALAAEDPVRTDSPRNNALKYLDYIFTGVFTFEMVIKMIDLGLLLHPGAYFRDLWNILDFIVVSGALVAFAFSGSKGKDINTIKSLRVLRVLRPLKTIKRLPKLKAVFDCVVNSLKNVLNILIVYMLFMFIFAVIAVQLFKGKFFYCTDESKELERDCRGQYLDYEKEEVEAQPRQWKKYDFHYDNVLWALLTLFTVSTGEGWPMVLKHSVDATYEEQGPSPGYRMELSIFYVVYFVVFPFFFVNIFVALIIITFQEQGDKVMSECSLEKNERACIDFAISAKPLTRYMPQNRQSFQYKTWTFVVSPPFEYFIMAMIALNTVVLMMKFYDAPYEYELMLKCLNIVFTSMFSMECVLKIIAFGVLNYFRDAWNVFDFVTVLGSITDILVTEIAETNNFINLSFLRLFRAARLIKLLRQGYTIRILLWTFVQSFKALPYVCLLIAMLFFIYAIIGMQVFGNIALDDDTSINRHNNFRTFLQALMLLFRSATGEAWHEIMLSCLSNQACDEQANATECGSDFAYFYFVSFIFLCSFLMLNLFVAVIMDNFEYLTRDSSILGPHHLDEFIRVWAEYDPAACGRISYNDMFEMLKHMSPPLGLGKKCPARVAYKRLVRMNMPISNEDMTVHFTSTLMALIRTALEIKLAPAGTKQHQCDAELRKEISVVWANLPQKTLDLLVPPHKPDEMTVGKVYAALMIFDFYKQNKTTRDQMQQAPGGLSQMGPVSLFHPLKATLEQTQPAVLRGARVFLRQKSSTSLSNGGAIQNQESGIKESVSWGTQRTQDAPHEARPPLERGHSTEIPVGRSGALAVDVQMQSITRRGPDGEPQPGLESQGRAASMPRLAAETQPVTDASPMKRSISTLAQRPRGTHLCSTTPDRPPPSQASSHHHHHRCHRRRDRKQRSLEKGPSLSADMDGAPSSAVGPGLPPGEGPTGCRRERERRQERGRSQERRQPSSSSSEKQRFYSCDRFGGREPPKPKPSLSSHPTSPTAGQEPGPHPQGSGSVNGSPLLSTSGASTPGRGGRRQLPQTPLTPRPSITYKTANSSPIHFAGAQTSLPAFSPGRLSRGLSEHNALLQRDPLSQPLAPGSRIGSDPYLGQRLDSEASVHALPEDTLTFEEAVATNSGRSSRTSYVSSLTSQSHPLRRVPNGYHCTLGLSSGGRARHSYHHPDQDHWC
Sequence (Q02410 whole entry): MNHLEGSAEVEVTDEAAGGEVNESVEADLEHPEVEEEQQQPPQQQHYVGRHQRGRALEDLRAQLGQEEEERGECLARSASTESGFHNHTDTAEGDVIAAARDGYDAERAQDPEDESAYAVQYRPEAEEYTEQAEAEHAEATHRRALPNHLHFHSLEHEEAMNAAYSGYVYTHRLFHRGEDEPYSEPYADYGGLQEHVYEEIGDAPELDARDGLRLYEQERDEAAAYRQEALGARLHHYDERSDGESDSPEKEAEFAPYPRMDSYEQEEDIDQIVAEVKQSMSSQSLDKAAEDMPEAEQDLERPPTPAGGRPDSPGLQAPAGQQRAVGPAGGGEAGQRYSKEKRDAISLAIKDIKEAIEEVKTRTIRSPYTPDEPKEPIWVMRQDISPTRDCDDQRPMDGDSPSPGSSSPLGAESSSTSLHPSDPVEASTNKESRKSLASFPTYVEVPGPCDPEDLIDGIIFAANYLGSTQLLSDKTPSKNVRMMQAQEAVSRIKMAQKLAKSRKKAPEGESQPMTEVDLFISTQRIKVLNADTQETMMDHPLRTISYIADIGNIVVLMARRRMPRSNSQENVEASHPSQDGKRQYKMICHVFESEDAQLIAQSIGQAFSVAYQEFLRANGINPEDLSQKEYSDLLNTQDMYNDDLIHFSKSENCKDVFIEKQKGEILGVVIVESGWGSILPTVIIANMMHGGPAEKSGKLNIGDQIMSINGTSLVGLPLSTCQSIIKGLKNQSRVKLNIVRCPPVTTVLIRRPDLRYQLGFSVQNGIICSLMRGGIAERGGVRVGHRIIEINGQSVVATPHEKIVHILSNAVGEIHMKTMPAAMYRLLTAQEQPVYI
Format: protein assay
Calls of active or inactive are those of the source.
Result type: IC50

Here is how some molecules turned out for IC50.
{"columns": ["Smiles notation", "Result type", "Result"],
 "data": [
  ["O=C(CSc1ccc(Cl)cc1)Nc1cccc(-c2nc3ccccc3[nH]2)c1", "IC50", "2.75 µM (active)"],
  ["NC1=CC(=O)c2cccc3cccc1c23", "IC50", "12.7 µM (active)"],
  ["COc1cc(/C=C2\\SC(=O)N(c3ccc(Cl)cc3)C2=O)cc([N+](=O)[O-])c1O", "IC50", "> 56.8 µM (not active)"],
  ["COc1ccc(CC(=O)Nc2ccc(-c3nnc(-c4ccccc4)o3)cc2)cc1", "IC50", "8.88 µM (active)"]
]}

# IC50 of Clc1nss/c1=N\c1ccccc1 = 8.44 µM (active)

----------
System: H4
Assay explanation: Luminescence Cell-Based Dose Response HTS to Identify Activators of 5'UTR Stem-Loop Driven Prion Protein mRNA Translation in H4 Neuroglioblastoma Cells. [Related pubchem assays: 1829 (Project Summary), 1814 (Primary HTS)]
Format: functional
Condition details: Homo sapiens
Calls of active or inactive are those of the source.
Result type: EC50

Here is how some compounds turned out for EC50.
{"columns": ["Smiles notation", "EC50"],
 "data": [
  ["S=C(Nc1ccc(Br)cc1Cl)N1CCC2(CC1)OCCO2", "16 µM (active)"],
  ["O=C(Nc1cc(Cl)ccc1-n1cncn1)c1ccc([N+](=O)[O-])o1", "> 120 µM (not active)"],
  ["COc1ccc(C(=O)/C=C2/C(=O)Nc3ccccc32)cc1", "17.1 µM (active)"]
]}

# EC50 of CNC(=O)COC(=O)c1ccc(-c2nc3ccccc3s2)s1 = 56.3 µM (active)

# EC50 of O=[N+]([O-])c1ccc(/C=C2\CCC(C3=CCCC3)=C2N2CCOCC2)cc1 = > 120 µM (not active)

----------
Test system: UniProtKB P9WHJ3
Assay explanation: Fluorescence Cell-Free Homogeneous Dose Retest to Identify Inhibitors of RecA-Intein Splicing Activity. [Related pubchem assays (depositor defined):AID2097, AID2223, AID489010, AID492950]
Format: functional
Activity calls are given as the source filed them.
Catalogue of EC50 readings, one per entry.

Here is how some molecules turned out for EC50.
{"columns": ["Molecule", "Result type", "Result"],
 "data": [
  ["CC1(C)N=C(SCC(=O)Nc2ccc(Cl)cc2)C(c2ccc(Cl)cc2)=N1", "EC50", "4.7 µM (active)"],
  ["COc1ccc(NC(=O)Cn2ncc(Cl)c(Cl)c2=O)cc1S(=O)(=O)N1CCOCC1", "EC50", "10.1 µM (active)"],
  ["O=[N+]([O-])c1c(Nc2ccccn2)cc(Cl)c2nonc12", "EC50", "1.02 µM (active)"],
  ["CC(C)(C)C(=O)Nc1ccc(N=Nc2ccccc2)cc1", "EC50", "2.85 µM (active)"],
  ["CC(=O)OCCCNc1cc(SCc2ccco2)c2nonc2c1[N+](=O)[O-]", "EC50", "3.49 µM (active)"],
  ["O=C1NC2=C(CCc3ccccc32)C(c2ccccc2)N1 (stereo not given)", "EC50", "1.67 µM (active)"],
  ["Cc1nc2ccccc2c2c1C(=O)N(C(C)C)C2=O", "EC50", "0.851 µM (active)"],
  ["O=C(c1ccccc1)c1c[nH]c(C(=O)C(Cl)(Cl)Cl)c1", "EC50", "8.23 µM (active)"],
  ["O=C1COc2ccc(C(=O)CCl)cc2N1", "EC50", "26.3 µM (active)"],
  ["Cc1nn(-c2ccccc2)c2c1C1(C(=O)N3c4c(cccc41)C(C)CC3(C)C)C(C#N)=C(N)O2 (stereo not given)", "EC50", "3.2 µM (active)"]
]}

# EC50 of O=C(CSc1nnc(-c2ccccc2Cl)o1)Oc1ccc(Br)cc1 = 3 µM (active)

# EC50 of Cc1cccc(CS(=O)(=O)c2ncc(Cl)c(C(=O)NCc3ccc4c(c3)OCO4)n2)c1 = 3.52 µM (active)

# EC50 of O=C(NC(NC(=S)Nc1ccc(Cl)cc1Cl)C(Cl)(Cl)Cl)c1cccc([N+](=O)[O-])c1 (stereo not given) = 3.3 µM (active)

# EC50 of Cc1nn(Cc2ccccc2)c2c1C(c1ccco1)C(C#N)=C(N)O2 (stereo not given) = 3.15 µM (active)

# EC50 of Cc1ccc(S(=O)(=O)/N=C2\C=C(Nc3cccc(C(=O)O)c3)C(=O)c3ccccc32)cc1 = 0.266 µM (active)

----------
Test system: Heat shock factor protein 1 (Mus musculus, UniProt P38532)
Sequence (P38532 whole entry): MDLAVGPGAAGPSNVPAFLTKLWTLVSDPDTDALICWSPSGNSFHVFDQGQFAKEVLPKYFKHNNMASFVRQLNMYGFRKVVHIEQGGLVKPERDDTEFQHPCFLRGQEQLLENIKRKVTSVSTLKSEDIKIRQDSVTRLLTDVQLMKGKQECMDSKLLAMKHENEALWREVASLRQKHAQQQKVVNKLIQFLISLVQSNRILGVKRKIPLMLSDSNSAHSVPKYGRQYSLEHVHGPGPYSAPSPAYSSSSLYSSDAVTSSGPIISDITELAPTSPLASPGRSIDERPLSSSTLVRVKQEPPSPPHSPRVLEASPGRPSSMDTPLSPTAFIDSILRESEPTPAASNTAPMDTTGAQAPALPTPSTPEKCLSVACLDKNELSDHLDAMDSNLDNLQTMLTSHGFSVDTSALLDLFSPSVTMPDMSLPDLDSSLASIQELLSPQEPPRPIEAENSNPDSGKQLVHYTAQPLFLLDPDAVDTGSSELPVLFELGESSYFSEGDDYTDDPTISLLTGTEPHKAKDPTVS
Assay explanation: decrease of HSF1-responsive luciferase luminescence – cell-based, NIH3T3, dose retest, confirmation (AID 2382);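 further: NIH3T3 fibroblasts with HSF1-driven luciferase reporter stressed by proteasome inhibitor MG132; luminescence from HSF1-driven luciferase expression after 8 hours of MG132 stress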
Format: functional
Activity calls are given as the source filed them.
Catalogue of EC50 readings, one per entry.

{"columns": ["Compound", "EC50"],
 "data": [
  ["Cc1cccc(C)c1OCC(=O)NCc1ccccc1", "> 195 µM (not active)"],
  ["CC1=Nc2ccc(C)c3nc(C)cc(c23)N1c1ccc(C)cc1", "> 195 µM (not active)"],
  ["CCOc1ccc(NC(S)=Nc2ccc(OC(F)(F)F)cc2)cc1", "> 195 µM (not active)"],
  ["CC(C)(C)C(=O)Nc1ccc(N=Nc2ccccc2)cc1", "< 0.16 µM (active)"],
  ["CCOC(=O)Nc1ccccc1C(=O)Nc1cc(C)cc(C)c1", "> 195 µM (not active)"],
  ["N#C/C(=C\\Nc1ccc2c[nH]nc2c1)c1nc(-c2ccccc2)cs1", "> 195 µM (not active)"],
  ["COc1ccc(C(=O)NNC(=S)NC(=O)c2cccs2)cc1", "> 195 µM (not active)"],
  ["CC(=O)Nc1ccc(S(=O)(=O)NCc2csc(C)n2)cc1", "> 195 µM (not active)"]
]}

# EC50 of CC(N1CCOC1=O)S(=O)(=O)c1ccccc1 (stereo not given) = > 195 µM (not active)

----------
Catalogue of IC50 readings, one per entry.
Test system: H9c2;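 further: cell death induced by hydrogen peroxide oxidative stress; compound pretreatment for 60 min then peroxide exposure for 2 h; potency is for protecting the cells against peroxide damage rather than for killing them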;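 further: confirmatory concentration-response retest of ultra-high-throughput screening hits for modulation of myocardial damage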
Assay explanation: cells
Format: functional, cell-based
Condition details: Rattus norvegicus, H9c2, Myocardium
Active and inactive are the calls of the source.

Here is how some compounds turned out for IC50.
{"columns": ["Smiles notation", "Result"],
 "data": [
  ["CCOc1cc(/C=N/NC(N)=O)cc(Br)c1OCC(=O)Nc1cccc2ccccc12", "> 79 µM (inactive)"],
  ["CCn1c(/C=N/NC(=O)c2ccc(OC)cc2)nc2ccccc21", "> 79 µM (inactive)"],
  ["CN(CC(=O)Nc1ccc(F)cc1)C(=O)CCc1nc(O)c2ccccc2n1", "> 79 µM (inactive)"],
  ["Oc1nc2cccc(Cl)c2c2ccccc12", "39.6 µM (inactive)"]
]}

# IC50 of Cc1cc(C)cc(OCC(=O)Nc2cccc(-c3nc4ncccc4o3)c2)c1 = > 79 µM (inactive)

----------
Catalogue of IC50 readings, one per entry.
Assay explanation: cells
Assay type: functional
The source made the active and inactive calls.

Here is how some compounds turned out for IC50.
{"columns": ["Smiles notation", "IC50"],
 "data": [
  ["CN(C)CCCN(C(=O)CCc1ccccc1)c1nc2ccc(Cl)cc2s1", "22.9 µM (active)"],
  ["CCOc1ccc(-c2nc3ccccc3c(=O)o2)cc1", "7.01 µM (active)"],
  ["CCOC(=O)COn1c(-c2cccc(Cl)c2)nc2ccc([N+](=O)[O-])cc21", "28.9 µM (active)"]
]}

# IC50 of Cc1cc(C)nc(-n2nc(C)cc2Nc2ccccc2)n1 = 0.5 µM (active)

# IC50 of O=[N+]([O-])c1c(Nc2ccccn2)cc(Cl)c2nonc12 = 0.32 µM (active)

# IC50 of CCOc1cc(CNCCO)cc(Br)c1OCc1ccc(Cl)cc1 = 26.9 µM (active)

# IC50 of O=C(NNC(=O)c1ccccc1F)c1ccc(-c2ccc(Cl)cc2)o1 = 8.21 µM (active)

# IC50 of CCC(=O)Nc1nc2ccccc2n1Cc1ccccc1Cl = 0.21 µM (active)
